Values compiled from patent US5574055A.

- Subject Of Test: monoamine oxidase (MAO)
- Method Notes: MAO inhibition in vitro (brain)
- Experimental Parameters: rat brain homogenate, 14C-5-HT or 14C-PEA as substrate (which one not given), pH 7.4, 37° C., 30 min pre-incubation, 10 min incubation
Measured Quantity: IC50 (nM)

Compound	Reading Unit	IC50
COC[C@H]1CN(c2ccc([C@H]3CC[C@H](OCC#N)CC3)cc2)C(=O)O1	nM	1.6
COCC1CN(c2ccc([C@H]3CC[C@H](OCC#N)CC3)cc2)C(=O)O1 (mixture of isomers)	nM	2
COCC1CN(c2ccc(C3CC4C=CC3C4)cc2)C(=O)O1 (stereo not drawn)	nM	9

1. COC[C@H]1CN(c2ccc([C@H]3CC[C@H](O)CC3)cc2)C(=O)O1
2. COC[C@H]1CN(c2ccc([C@H]3CC[C@H](CC#N)CC3)cc2)C(=O)O1
3. COCC1CN(c2ccc([C@H]3CC[C@H](OCCN)CC3)cc2)C(=O)O1 (stereo partly drawn)
4. COCC1CN(c2ccc(C3CCCCC3)cc2)C(=O)O1 (racemic)
Prompt: Put these in order: smallest IC50 first, largest last. Answer with the labels in sequence, matching the requested order.
Response: 2, 4, 1, 3
(2: 1 nM, 4: 2 nM, 1: 8.5 nM, 3: 74 nM)

====

- Subject Of Test: monoamine oxidase (MAO)
- Method Notes: MAO inhibition in vitro (brain)
- Experimental Parameters: rat brain homogenate, 14C-5-HT or 14C-PEA as substrate (which one not given), pH 7.4, 37° C., 30 min pre-incubation, 10 min incubation
Where a name gives a salt, the structure may show the parent alone.
Measured Quantity: IC50 (nM)

Compound	IC50 (nM)
COC[C@H]1CN(c2ccc(OCC[C@@H](O)C(F)(F)F)cc2)C(=O)O1 [Befloxaton, reference compound]	1.9
COCC1CN(c2ccc([C@H]3CC[C@H](OC)CC3)cc2)C(=O)O1 (some centres unmarked)	6
COCC1CN(c2ccc(C3CCC(=O)CC3)cc2)C(=O)O1 (racemic)	10

a. COCC1CN(c2ccc(C3CCN(C(=O)/C=C/c4ccccc4)CC3)cc2)C(=O)O1 (racemic)
b. COC[C@H]1CN(c2ccc([C@H]3CC[C@H](OCCCN)CC3)cc2)C(=O)O1 [Example 71, hydrochloride]
Prompt: Hi there, can you help? I need to know whether a or b has lower measured IC50. Answer by quoting the chosen item's label.
Response: a
